ASSAY_TARGET: CaSla1-D3
MEASUREMENT_PROTOCOL: SPOT peptide array binding signal intensity (averaged, normalized) (arbitrary units (background-subtracted, floor 0; scale differs between SH3 domains)); higher = stronger binding of the SH3 domain to the peptide
Reported SPOT peptide array binding signal intensity values are given for each entry in this list.
ENDPOINT: SPOT peptide array binding signal intensity

BINDER | EXPERIMENTAL_VALUE
VPKEPAPAPPPEPDM | ≤ 0
LRIKRKPVQTFFEFI | 37
VQQDSLPKLPFRSWG | 1.5
VRVKKRPLIRPLNSS | 0.25
TTNRGPPPLPPRANV | 1.5
AIPPPVPNRPGGTTN | ≤ 0
KDKSRPPRPPPKPLH | 21.5
STPQTMRQAPKRPDA | 225
NILKRRPLKLEAPSK | ≤ 0
PIVPSSPAPPLPLSG | ≤ 0
VGFRLALKFPSRITG | 782
AHFQPQRTAPKPPIS | 0.75
DLPLPDLPPEPPTEL | ≤ 0
GRLRPKRIAPWHLIQ | 1
MKRSRPSRSIPYTTP | 14
RRRRRPHRIERPLSN | 3.5
HAPPLPPTAPPPPSL | ≤ 0
SSSSSPPPLPTRRDH | 3.25
FYNRTAFQLPGDARV | ≤ 0
NSVPIMPTLPPRPYI | 46
SPLGAPPPPPHKDHL | ≤ 0
RRLRDKYKLPIVDAD | 1.75
LKHGWKPLRPIKLIS | 10
LKPPIGRPPKFPKSP | 3.25
RKQRSIPLSPIVPES | ≤ 0
KRRAPPPVPKKPSSR | 1040
NQARKPFLLPATELS | ≤ 0
DTFLPPPPPPPSNFE | ≤ 0
KLSRGRYGLPLSSRP | 0.25
IAPIPMPKPNPTHIS | 52.5
